run-description: Pharmacokinetic interaction between atazanavir and the Compound: EVG/ATV versus EVG/r crossover in healthy subjects
assay-context: human, plasma, median T1/2, EVG/ATV 300/400 mg
value-type: half-life (h)
Reply numerically in h, unit not repeated.

## Task Please look at this compound and report its half-life: COc1cc2c(cc1Cc1cccc(Cl)c1F)c(=O)c(C(=O)O)cn2[C@H](CO)C(C)C
## Result 5.2
